FYI, the data here is from the kinase profiling compilation of Christmann-Franck et al. (2016).

- system: MAPK15 (human)
- measurement.notes: KINOMEscan competition binding
- experimental.parameters: compound 10.0 µM
Entries and their kinase still bound, per cent of control
Report as a plain number; the unit % is understood.

Example entries and their recorded answers appear below.
{"smiles.data": "CCC(=O)N1CCN(c2ccc(-n3c(=O)ccc4cnc5ccc(-c6cnc7ccccc7c6)cc5c43)cc2C(F)(F)F)CC1", "system": "MAPK15 (human)", "units.text": "%", "numeric.result": 79}
{"smiles.data": "C=CC(=O)Nc1cccc(Nc2nc(N[C@H]3CC[C@H](N(C)C)CC3)nc3c2ncn3C(C)C)c1", "system": "MAPK15 (human)", "units.text": "%", "numeric.result": 75}
{"smiles.data": "C=CC(=O)Nc1cccc(Oc2nc(Nc3ccc(N4CCN(C)CC4)cc3OC)ncc2Cl)c1", "system": "MAPK15 (human)", "units.text": "%", "numeric.result": 100}
{"smiles.data": "CCCS(=O)(=O)Nc1ccc(F)c(C(=O)c2c[nH]c3ncc(-c4ccc(Cl)cc4)cc23)c1F", "system": "MAPK15 (human)", "units.text": "%", "numeric.result": 89}
{"smiles.data": "O=C(NC1CC1)c1cccc(-c2ccc3c(NC(=O)C4CC4)n[nH]c3c2)c1", "system": "MAPK15 (human)", "units.text": "%", "numeric.result": 2.9}
{"smiles.data": "CCN1CCN(Cc2ccc(Nc3ncc4c(n3)N(C)c3ccccc3C(=O)N4C)cc2C(F)(F)F)CC1", "system": "MAPK15 (human)", "units.text": "%", "numeric.result": 100}
{"smiles.data": "CC[C@@H]1C(=O)N(C)c2cnc(Nc3ccc(C(=O)NC4CCN(C)CC4)cc3OC)nc2N1C1CCCC1", "system": "MAPK15 (human)", "units.text": "%", "numeric.result": 100}
{"smiles.data": "OCCCNc1cc(-c2ccnc(Nc3cccc(Cl)c3)n2)ccn1", "system": "MAPK15 (human)", "units.text": "%", "numeric.result": 2}
{"smiles.data": "Nc1ccc(-c2ccc3ncc4ccc(=O)n(-c5cccc(C(F)(F)F)c5)c4c3c2)cn1", "system": "MAPK15 (human)", "units.text": "%", "numeric.result": 18}
{"smiles.data": "Cn1c(=O)n(-c2ccc(C(C)(C)C#N)cc2)c2c3cc(-c4cnc5ccccc5c4)ccc3ncc21", "system": "MAPK15 (human)", "units.text": "%", "numeric.result": 100}

Field: next molecule
kinase still bound, per cent of control in this record for `Cc1ccc(C(=O)Nc2cccc(C(F)(F)F)c2)cc1Nc1cncc(C(N)=O)c1` : 100
